Target: PDE5 (Homo sapiens, UniProt O76074)
Assay: Kinetic assay (Lineweaver–Burk) on PDE5;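 note: pure compound doses in mM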
Format: biochemical
Design: unit of the concentration uncertain
Details: PDE5 treated with compound 1 (unit uncertain)
Each record is given yes (1) if its reported Kcat is strictly below 7000 k s^−1. Records at or above 7000 k s^−1 are given no (0).

Record excerpt, results attached:
# compound, label
records = [
    ("C[S@+]([O-])C[C@H](N)C(=O)O [MT, methiin]", "yes (1)"),
    ("O=c1c(O)c(-c2ccc(O)c(O)c2)oc2cc(O)cc(O)c12 [QUE, quercetin]", "yes (1)"),
    ("C=CCSSCC=C [DADS, diallyl disulfide]", "no (0)"),
]

Exam item: In plain terms, does O=c1c(O)c(-c2ccc(O)cc2)oc2cc(O)cc(O)c12 [KAE, kaempferol] come in under 7000 k s^−1 for Kcat?
Marked response: yes (1)

Exam item: // query: C/C=C/[S@+]([O-])C[C@H](N)C(=O)O [IA, isoalliin]
Marked response: yes (1)
